- protocol: Bmi1-luciferase reporter activators in mESC, dose response, esBAF inhibitor project, mouse embryonic stem cells, cherry-pick (AID 651717);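 note: luciferase knocked into Bmi1 locus with EF-1a renilla as cell number control; rising ratio signals esBAF inhibition which derepresses Bmi1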
- conditions: firefly/renilla ratio, 24 h, stronger effect = higher value; at 35 µM unless noted
The whole screen tested about 1,200 compounds, of which about 950 (79%) were called active. The set was probably picked from earlier hits. Not all results are given here. Results with a measured potency or affinity are listed apart.
quantityKind: max activity

Below: 5 molecules and their reported max activity.
In [3]: df
Out[3]:
                       smilesrepresentation                  readoutvalue
0  COc1ccc(NC(=O)Nc2cccc3c2O[C@@H](CN(C)C(=O)Nc2cccc4ccccc24)[C@H](C)CN([C@@H](C)CO)C3=O)cc1              22.8% (inactive)
1  CN(C)c1ccc(C(=O)Nc2cccc(S(=O)(=O)N3CCCC3)c2)cc1     25% [at 16 µM] (inactive)
2  CCc1c(C(=O)Nc2ccc(C)c(C)c2)[nH]c(C)c1C(C)=O  13.1% [at 4.2 µM] (inactive)
3            O=C(Nc1cccc(F)c1)Nc1cccc(Cl)c1   39.5% [at 16 µM] (inactive)
4  C[C@H](CO)N1C[C@H](C)[C@@H](CN(C)C(=O)Nc2ccc3c(c2)OCO3)OCCCC[C@H](C)Oc2ccc(NC(=O)c3ccncc3)cc2C1=O   -9% [at 0.26 µM] (inactive)

Notebook: `C[C@@H]1CCCCO[C@H](CN(C)S(=O)(=O)c2cn(C)cn2)[C@@H](C)CN([C@@H](C)CO)C(=O)c2cc(NC(=O)Nc3ccc4c(c3)OCO4)ccc2O1` , max activity read as -8.77% [at 8 µM] (inactive)

Notebook: `COc1ccc2oc(C(=O)OCC(=O)Nc3ccc(C)c(S(=O)(=O)N4CCOCC4)c3)c(C)c2c1` , max activity read as 34.7% (inactive)

Notebook: `Cc1ccc(S(=O)(=O)N(C)C[C@H]2OCCCC[C@H](C)Oc3ccc(NC(=O)Nc4ccc5c(c4)OCO5)cc3C(=O)N([C@H](C)CO)C[C@H]2C)cc1` , max activity read as 10.8% [at 16 µM] (inactive)

---

- protocol: Bmi1-luciferase reporter activators in mESC, dose response, esBAF inhibitor project, mouse embryonic stem cells, cherry-pick (AID 651717);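 note: luciferase knocked into Bmi1 locus with EF-1a renilla as cell number control; rising ratio signals esBAF inhibition which derepresses Bmi1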
- conditions: firefly/renilla ratio, 24 h, stronger effect = higher value; at 35 µM unless noted
The campaign covered roughly 1,200 compounds. About 950 (79%) were called active. The set was probably picked from earlier hits. Not all results are given here. Entries with a potency or affinity are not part of this list.
quantityKind: max activity

Below: 7 compounds and their reported max activity.
In [3]: df
Out[3]:
                                   compound                 readoutvalue
0  Cc1noc(C)c1NC(=O)N(C)C[C@@H]1Oc2ncc(C#CC3CC3)cc2C(=O)N([C@@H](C)CO)C[C@H]1C    9.7% [at 8 µM] (inactive)
1              CCCCC(=O)c1c(O)c2ccccc2oc1=O             28.9% (inactive)
2  C[C@@H]1CN([C@@H](C)CO)C(=O)c2cc(NC(=O)Nc3ccc4c(c3)OCO4)ccc2O[C@H]1CN(C)C(=O)Nc1ccc(C(F)(F)F)cc1            -14.9% (inactive)
3  Cc1ccc(-n2nc(C(=O)c3ccccc3)n3c(=O)cc(-c4ccccc4)nc23)cc1  5.74% [at 16 µM] (inactive)
4  C[C@H]1CN([C@@H](C)CO)C(=O)c2c(c3ccccc3n2C)-c2ccccc2CO[C@H]1CN(C)C(=O)Nc1ccc2c(c1)OCO2            -25.1% (inactive)
5  CC(C)c1ccc(NC(=O)c2ccccc2NC(=O)C2CCCCC2C(=O)O)cc1 (stereo not drawn)               41% (inactive)
6  O=C1Nc2ccccc2N=C(c2ccc3c(c2)OCO3)C1N(CCc1ccccc1)C(=O)CSc1ncccn1 (stereo not drawn)            -16.9% (inactive)

// next entry
Notebook: COC(=O)c1ccc2c(=O)n(CC3CCCO3)c(SCC(=O)Nc3ccccc3Cl)nc2c1 (stereo not drawn) , max activity read as 24.8% [at 8 µM] (inactive)

Hello, the source for this data is PubChem BioAssay AID651717, in case you need it.
